# measurementNotes: Metabolic stability assessed as half life in mouse liver microsomes
# conditionNotes: liver microsomes

{"smilesNotation": "CCC(CC)C(=O)N/C(=N\\C1=NC(=O)C(=O)N1c1ccc(Cl)c(Cl)c1)NC(C)C", "half-life": "< 10 min"}
{"smilesNotation": "CCCC(=O)N/C(=N\\C1=NC(=O)C(=O)N1c1ccc(Cl)c(Cl)c1)NC(C)C", "half-life": "< 10 min"}
{"smilesNotation": "CC(C)N/C(=N/C1=NC(=O)C(=O)N1c1ccc(Cl)c(Cl)c1)NC(=O)C(C)C", "half-life": "< 10 min"}
{"smilesNotation": "CCC(CC)c1nc(Nc2ccc(Cl)c(Cl)c2)nc(NC(C)C)n1", "half-life": "> 60 min"}
{"smilesNotation": "CCC(CC)C(=O)N/C(=N/C1=NC(=O)C(=O)N1C(C)C)Nc1ccc(Cl)c(Cl)c1", "half-life": "> 60 min"}

###

# measurementNotes: Metabolic stability assessed as half life in human liver microsomes
# conditionNotes: microsomes

{"smilesNotation": "CC(C)N1C(=O)C(=O)N=C1/N=C(/NC(=O)C(C)(C)C)Nc1ccc(Cl)c(Cl)c1", "half-life": "> 1 h"}

###

# measurementNotes: Metabolic stability assessed as half life in mouse liver microsomes
# conditionNotes: microsomes
measuredParameter: half-life

{"smilesNotation": "CC(C)N1C(=O)C(=O)N=C1/N=C(/NC(=O)C(C)(C)C)Nc1ccc(Cl)c(Cl)c1", "measuredParameter": "half-life", "measurement": "> 1 h"}

###

# measurementNotes: Metabolic stability assessed as half life in human liver microsomes
# conditionNotes: liver microsomes
measuredParameter: half-life

{"smilesNotation": "CCC(CC)C(=O)N/C(=N\\C1=NC(=O)C(=O)N1c1ccc(Cl)c(Cl)c1)NC(C)C", "measurement": "< 10 min"}
{"smilesNotation": "CC(C)N/C(=N/C1=NC(=O)C(=O)N1c1ccc(Cl)c(Cl)c1)NC(=O)C(C)C", "measurement": "< 10 min"}
{"smilesNotation": "CCCC(=O)N/C(=N\\C1=NC(=O)C(=O)N1c1ccc(Cl)c(Cl)c1)NC(C)C", "measurement": "< 10 min"}
{"smilesNotation": "CCC(CC)C(=O)N/C(=N/C1=NC(=O)C(=O)N1C(C)C)Nc1ccc(Cl)c(Cl)c1", "measurement": "> 60 min"}
{"smilesNotation": "CCC(CC)c1nc(Nc2ccc(Cl)c(Cl)c2)nc(NC(C)C)n1", "measurement": "> 60 min"}
